Numbers sourced from paper PMC12369603.

Catalogue of compounds with associated activity at 2 µM
Target: recombinant AplaCSP4 (Agrilus planipennis chemosensory protein 4) (Agrilus planipennis)
Sequence (A0A1W4XLL0 entry or part of it): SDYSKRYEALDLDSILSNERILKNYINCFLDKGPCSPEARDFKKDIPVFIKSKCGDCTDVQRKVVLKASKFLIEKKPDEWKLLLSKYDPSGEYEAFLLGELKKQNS
Assay: biochemical
Format: binding
Conditions: pH 7.4, ligand concentration 2 μM; three replicate columns; 100 at 0 μM; read-out: Competitive binding capability(%)
Give your result in % as a bare value.

Look over these answered cases.
[
  {
    "Compound": "CCCCCCOC(=O)CCC [Hexyl butyrate]",
    "activity at 2 µM [%]": 93.1
  },
  {
    "Compound": "C=CC(=C)CCC=C(C)C",
    "activity at 2 µM [%]": 93.4
  },
  {
    "Compound": "C=CC(C)(O)CCC=C(C)CCC=C(C)C (mixture of isomers)",
    "activity at 2 µM [%]": 49.2
  }
]

Note: attention shifts to another entry.
Reported activity at 2 µM, compound CC/C=C\CCOC(=O)c1ccccc1 [cis-3-Hexenyl benzoate] : ____
76.1
